Endpoint: MIC. System: EKO-35 araC::mexCD Pore. Items follow.

| Molecule | Measurement Target | MIC [µg/mL] |
| --- | --- | --- |
| Cc1onc(-c2ccccc2)c1C(=O)N[C@@H]1C(=O)N2[C@@H]1SC(C)(C)[C@@H]2C(=O)O | EKO-35 araC::mexCD Pore | 2.5 |
| CC(=O)O[C@H]1C[C@@]2(C)[C@@H](C[C@@H](O)[C@H]3[C@@]4(C)CC[C@@H](O)[C@@H](C)[C@@H]4CC[C@@]32C)/C1=C(\CCC=C(C)C)C(=O)O | EKO-35 araC::mexCD Pore | 1.56 |
| CC[n+]1c(-c2ccccc2)c2cc(N)ccc2c2ccc(N)cc21 [ethidium bromide] | EKO-35 araC::mexCD Pore | 0.781 |
| CCn1cc(C(=O)O)c(=O)c2cc(F)c(N3CCNCC3)cc21 | EKO-35 araC::mexCD Pore | 0.039 |
